These data points were gathered from patent US7994209B2.

pKi: −log10 of the molar value.
Reported values: pKi for hSERT (Homo sapiens, UniProt P31645), one per item.

Solved entries:
Clc1ccc(O[C@@H](C2CC2)[C@H]2CCNC2)c2ccccc12 = ≥ 7.00
CC(C)CC(Oc1ccc(F)cc1)C1CCNC1 (stereo not shown) = ≥ 8.00
CC[C@H](Oc1ccc(C(F)(F)F)cc1)[C@H]1CCNC1 = ≥ 8.00
CC[C@H](Oc1ccc(Cl)cc1C)[C@@H]1CCNC1 = ≥ 8.00
CC(C)C[C@H](Oc1ccc(Cl)cc1Cl)[C@H]1CCNC1 = ≥ 8.00
CCC[C@H](Oc1ccc(C)cc1Cl)[C@@H]1CCNC1 = ≥ 8.00

Query compound follows.
Reading of pKi for CC(C)C(Oc1ccc(Cl)cc1)C1CCNC1 (stereo not shown) with hSERT (Homo sapiens, UniProt P31645): ≥ 8.00

====

Target: hSERT (Homo sapiens, UniProt P31645)
Sequence (P31645 whole entry): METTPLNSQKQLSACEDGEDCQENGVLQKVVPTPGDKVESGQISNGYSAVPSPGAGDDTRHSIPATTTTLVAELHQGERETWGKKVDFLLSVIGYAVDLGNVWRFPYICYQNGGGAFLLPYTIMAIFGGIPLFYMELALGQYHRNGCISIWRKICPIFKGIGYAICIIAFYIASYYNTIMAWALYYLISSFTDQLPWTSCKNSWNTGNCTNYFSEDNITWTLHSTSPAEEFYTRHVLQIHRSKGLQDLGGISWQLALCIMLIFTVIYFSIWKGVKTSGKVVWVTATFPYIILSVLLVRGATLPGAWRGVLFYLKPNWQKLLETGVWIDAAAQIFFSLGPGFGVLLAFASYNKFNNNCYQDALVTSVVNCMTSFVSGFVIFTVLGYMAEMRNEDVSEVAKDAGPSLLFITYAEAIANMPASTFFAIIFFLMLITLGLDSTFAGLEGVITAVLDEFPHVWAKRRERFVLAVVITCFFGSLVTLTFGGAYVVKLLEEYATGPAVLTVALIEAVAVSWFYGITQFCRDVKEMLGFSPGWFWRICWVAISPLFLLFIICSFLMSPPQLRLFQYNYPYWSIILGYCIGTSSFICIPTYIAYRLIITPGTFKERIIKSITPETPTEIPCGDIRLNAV
pKi: −log10 of the molar value.
property measured: pKi

Some solved entries appear below for comparison.
Clc1ccc(Cl)c(O[C@@H](C2CC2)[C@H]2CCNC2)c1Cl = ≥ 8.00
CC(C)C(Oc1c(Cl)cccc1Cl)C1CCNC1 (stereo not shown) = ≥ 7.00
CC[C@H](Oc1cccc2ccccc12)[C@H]1CCNC1 = ≥ 8.00
CC(C)CC(Oc1cccc(Cl)c1Cl)C1CCNC1 (stereo not shown) = ≥ 8.00
CCC[C@H](Oc1cccc2ccccc12)[C@H]1CCNC1 = ≥ 8.00
Clc1cccc(O[C@H](C2CC2)[C@H]2CCNC2)c1 = ≥ 8.00

# input for lookup
// assay hSERT (Homo sapiens, UniProt P31645), entry "CCC[C@H](Oc1ccc(Cl)cc1C(F)(F)F)[C@H]1CCNC1" , pKi value = ≥ 8.00

====

Below are molecules with their Ki as measured on hSERT (Homo sapiens).

In the examples that follow, each entry is paired with its recorded Ki.
CC[C@H](Oc1c(F)c(F)cc(F)c1F)[C@H]1CCNC1 [Example 2-56] = ≤ 100 nM
CCC[C@H](Oc1ccc(Cl)c(F)c1)[C@H]1CCNC1 [Example 4-18] = ≤ 10 nM
CCC[C@H](Oc1cccc(Cl)c1Cl)[C@H]1CCNC1 [Example 3] = ≤ 10 nM
CCC[C@@H](Oc1cccc(Cl)c1C(F)(F)F)[C@H]1CCNC1 [Example 4-69] = ≤ 10 nM

Entry CC(C)[C@H](Oc1cc(Cl)cc(Cl)c1)[C@H]1CCNC1 [Example 6-66] under hSERT (Homo sapiens) had Ki of ≤ 10 nM

# Ki measured on hSERT (Homo sapiens) for item Clc1cc(Cl)c(O[C@@H](C2CC2)[C@H]2CCNC2)cc1Cl [Example 16-71] = ≤ 10 nM

CC[C@H](Oc1ccc(Cl)c(Cl)c1)[C@H]1CCNC1 [Example 2-7] tested on hSERT (Homo sapiens) gave Ki: ≤ 10 nM

====

Catalogue of IC50 values
Target: hSERT (Homo sapiens)
Assay: hSERT neurotransmitter uptake assay (3H-5-HT), Assay 2
Assay type: cell-based
Design: expressed in transfected cells; host or cells: HEK-293
Details: serotonin reuptake inhibition, 3H-5-HT uptake, HEK-293 hSERT cells (values without asterisk); read-out: SERT pIC50 (converted)
Description: Cells were harvested by centrifugation at 1100 rpm for 5 minutes, washed once by resuspension in PBS, then centrifuged. The supernatant was discarded and the cell pellet resuspended, by gentle trituration, in room temperature Krebs-Ringer bicarbonate buffer containing HEPES (10 mM), CaCl2 (2.2 mM), ascorbic acid (200 μM) and pargyline (200 μM), pH 7.4. […]

Study these solved cases before continuing.
CC(C)[C@H](Oc1ccc(Cl)c(F)c1F)[C@H]1CCNC1 = ≤ 10 nM
CCC[C@H](Oc1ccc(F)cc1Cl)[C@H]1CCNC1 = ≤ 10 nM
CC(C)C(Oc1ccccc1Cl)C1CCNC1 (stereo not shown) = ≤ 100 nM
COc1cc(Cl)ccc1O[C@H](C1CC1)[C@H]1CCNC1 = ≤ 10 nM
CCCC[C@@H](Oc1ccc(Cl)cc1)[C@H]1CCNC1 = ≤ 10 nM
Clc1cccc(O[C@H](C2CC2)[C@H]2CCNC2)c1Cl = ≤ 10 nM
CCC[C@H](Oc1ccc(Cl)cc1)[C@H]1CCNC1 = ≤ 10 nM
CC(C)C[C@H](Oc1cccc(F)c1)[C@H]1CCNC1 = ≤ 100 nM

Reported IC50 for "CCCC[C@@H](Oc1c(Cl)cccc1Cl)[C@H]1CCNC1" was ≤ 100 nM

// IC50 lookup, compound = "CC(C)C[C@H](Oc1cc(Cl)cc(Cl)c1)[C@H]1CCNC1" , result: ≤ 10 nM

====

Target: hNET (Homo sapiens, UniProt P23975)
Sequence (P23975 whole entry): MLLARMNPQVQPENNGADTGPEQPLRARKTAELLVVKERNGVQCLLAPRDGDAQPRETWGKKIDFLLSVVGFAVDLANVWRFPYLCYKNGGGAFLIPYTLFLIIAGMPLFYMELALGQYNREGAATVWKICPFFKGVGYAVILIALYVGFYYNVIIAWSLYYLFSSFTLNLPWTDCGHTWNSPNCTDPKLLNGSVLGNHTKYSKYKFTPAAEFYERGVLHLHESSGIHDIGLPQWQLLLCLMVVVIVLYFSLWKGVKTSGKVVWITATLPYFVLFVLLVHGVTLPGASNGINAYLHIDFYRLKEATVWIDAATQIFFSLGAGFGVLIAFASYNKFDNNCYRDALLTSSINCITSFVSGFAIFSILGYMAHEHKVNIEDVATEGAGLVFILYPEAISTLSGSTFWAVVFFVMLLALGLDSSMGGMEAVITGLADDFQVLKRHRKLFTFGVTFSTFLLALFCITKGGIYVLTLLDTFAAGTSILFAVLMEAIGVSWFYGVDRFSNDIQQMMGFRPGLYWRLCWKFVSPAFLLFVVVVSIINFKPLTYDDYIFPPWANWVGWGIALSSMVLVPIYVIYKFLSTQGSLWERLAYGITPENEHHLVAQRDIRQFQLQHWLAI
Assay: fluorescence-based norepinephrine reuptake inhibition assay (Tsuruda et al. 2010; data indicated by an asterisk)
Type: cell-based
Parameters: expressed in transfected cells; host or cells: HEK-293
Settings: norepinephrine reuptake inhibition, fluorescence-based assay (values with asterisk); read-out: NET pIC50 (converted)
IC50 values, listed per item

Known IC50 results, listed for orientation:
Cc1ccc(F)c(O[C@H](C2CC2)[C@H]2CCNC2)c1Cl = ≤ 10 nM
Cc1c(Cl)cccc1O[C@@H](C(C)C)[C@@H]1CCNC1 = ≤ 100 nM
CC(C)[C@H](Oc1cccc(Cl)c1F)[C@H]1CCNC1 = ≤ 10 nM
CC(C)C[C@H](Oc1ccc(Cl)c(Cl)c1)[C@H]1CCNC1 = ≤ 10 nM
CCC[C@H](Oc1c(C)cc(Cl)cc1Cl)[C@H]1CCNC1 = ≤ 10 nM

IC50 reported for this compound "CC(C)C[C@@H](Oc1ccc(Cl)cc1F)[C@H]1CCNC1" : ≤ 10 nM

====

Target: UniProt P23975
property measured: Ki

Here's what some known entries look like.
CCC[C@H](Oc1ccc(C)cc1Cl)[C@H]1CCNC1 = ≤ 10 nM
CCC[C@H](Oc1cccc(Cl)c1C)[C@H]1CCNC1 = ≤ 10 nM
CC(C)C(Oc1ccc(F)cc1)C1CCNC1 (centres unmarked) = ≤ 100 nM
CC[C@H](Oc1cc(Cl)cc(Cl)c1)[C@H]1CCNC1 = ≤ 100 nM

// next item, Ki requested
Please fill in: Ki reported for "COc1ccc(Cl)c(O[C@@H](C2CC2)[C@H]2CCNC2)c1F" = ≤ 10 nM

====

Hi! I'm sharing some Ki results obtained with hSERT (Homo sapiens).

# count of solved cases: 6
CCC[C@H](Oc1ccc(Cl)cc1C)[C@@H]1CCNC1 [Example 4-59] = ≤ 10 nM
Cc1ccc(O[C@@H](C2CC2)[C@H]2CCNC2)c(Cl)c1 [Example 16-23] = ≤ 10 nM
CCC[C@@H](Oc1cccc(Cl)c1C)[C@H]1CCNC1 [Example 4-55] = ≤ 10 nM
CCC[C@@H](Oc1ccccc1Cl)[C@@H]1CCNC1 [Example 4-22] = ≤ 100 nM
CC[C@H](Oc1cccc(F)c1)[C@H]1CCNC1 [Example 2-9] = ≤ 100 nM
CC[C@H](Oc1ccccc1Cl)[C@H]1CCNC1 [Example 2-23] = ≤ 10 nM

Case CC[C@H](Oc1ccc(Cl)cc1)[C@H]1CCNC1 [Example 2-2] , hSERT (Homo sapiens), Ki recorded as ≤ 10 nM

Entry CCC[C@@H](Oc1cc(Cl)cc(Cl)c1)[C@@H]1CCNC1 [Example 4-9] : Ki on hSERT (Homo sapiens) = ≤ 10 nM

Summary line: CC[C@@H](Oc1cccc(Cl)c1Cl)[C@@H]1CCNC1 [Example 2-29] , hSERT (Homo sapiens), reported Ki = ≤ 10 nM

====

Target: hNET (Homo sapiens, UniProt P23975)
Reported Ki by item:

Cc1cc(O[C@@H](C2CC2)[C@H]2CCNC2)ccc1Cl = ≤ 10 nM
CCCC[C@@H](Oc1ccccc1C(F)(F)F)[C@H]1CCNC1 = ≤ 10 nM

Reported Ki for "CC[C@H](Oc1c(F)cccc1F)[C@H]1CCNC1" was ≤ 10 nM

CC(C)CC(Oc1cccc(C(F)(F)F)c1F)C1CCNC1 (stereo not drawn) yielded Ki of ≤ 10 nM

Lookup result for "CC(C)[C@H](Oc1cccc(F)c1Cl)[C@H]1CCNC1" ; measured Ki: ≤ 10 nM

Just so you know, measured Ki for "CC(C)C[C@H](Oc1cccc(F)c1)[C@H]1CCNC1" came out at ≤ 10 nM

Reported Ki for CC(C)CC(Oc1cccc(C(F)(F)F)c1)C1CCNC1 (stereo not drawn) was ≤ 100 nM

Record "Fc1ccc(O[C@@H](C2CC2)[C@H]2CCNC2)cc1Cl" , field Ki: ≤ 10 nM

Given item "CC[C@@H](Oc1c(F)ccc(Cl)c1Cl)[C@H]1CCNC1" , the value recorded as its Ki is ≤ 10 nM

The value of Ki measured for the molecule "Cc1cc(Cl)cc(C)c1O[C@@H](C1CC1)[C@H]1CCNC1" turned out to be ≤ 100 nM

// Ki value for "Clc1ccc(O[C@@H](C2CC2)[C@H]2CCNC2)c(C2CCCCC2)c1" : ≤ 10 nM

Reported Ki of "CCCC[C@@H](Oc1cccc(Cl)c1C)[C@H]1CCNC1" : ≤ 10 nM

So for "CCCC[C@@H](Oc1ccc(Cl)cc1C(F)(F)F)[C@H]1CCNC1" , the logged Ki turned out to be ≤ 10 nM

For this molecule ( CC(C)CC(Oc1c(F)ccc(F)c1Cl)C1CCNC1 (stereo not drawn) ), measured Ki is ≤ 10 nM
